Molecular target: T1, recombinant hPEPT1 receptor domain (human PEPT1, amino acid residues 391-571), His-tag fusion protein (human, UniProt P46059 391-571)
T1 construct: purified under denaturing conditions; coated on plates
T1 sequence: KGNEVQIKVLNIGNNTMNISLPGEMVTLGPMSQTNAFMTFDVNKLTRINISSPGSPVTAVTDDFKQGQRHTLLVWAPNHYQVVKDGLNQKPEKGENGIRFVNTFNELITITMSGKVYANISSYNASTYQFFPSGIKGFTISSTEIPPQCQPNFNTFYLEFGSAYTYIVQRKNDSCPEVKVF
Test: phage ELISA, OD on hPEPT1 over OD on BSA
Ends that are not written are not given here.
endpoint: PEPT1/BSA (ratio)
Respond with the bare value in ratio.

binder	measured result
SFQVYPDHGLERHALDGTGPLYAMPGRWIRARPQNRDRQ (also: displayed as N-terminal pIII fusion on M13 phage, M13 phage displaying this insert as N-terminal pIII fusion; whole phage in the ELISA; not shown: M13 phage particle / pIII display carrier (and vector flanks)) [phage PAX45]	5
RSITDGGINEVDLSSVSNVLENANSHRAYRKHRPTLKRP (also: displayed as N-terminal pIII fusion on M13 phage, M13 phage displaying this insert as N-terminal pIII fusion; whole phage in the ELISA; not shown: M13 phage particle / pIII display carrier (and vector flanks)) [phage PAX35]	7
SRCTDNEQCPDTGTRSRSVSNARYFSSRLLKTHAPHRP (cysteine pairing not given here; also: displayed as N-terminal pIII fusion on M13 phage, M13 phage displaying this insert as N-terminal pIII fusion; whole phage in the ELISA; not shown: M13 phage particle / pIII display carrier (and vector flanks)) [phage PAX46]	6

Query string: Looking for the measured PEPT1/BSA of SSADAEKCAGSLLWWGRQNNSGCGSPTKKHLKHRNRSQTSSSSH (cysteine pairing not given here; also: displayed as N-terminal pIII fusion on M13 phage, M13 phage displaying this insert as N-terminal pIII fusion; whole phage in the ELISA; not shown: M13 pIII coat protein and phage particle (display carrier)) [phage P90] , can you help?
Result string: 9
